Test system: LS-1034 (Colorectal Carcinoma)
Assay: combination Emax (second highest fraction inhibited in the dose matrix, 72 h); higher = more inhibition; extreme values may be limits of the assay
# cutoff 0.4 applies to combination Emax; >= gives YES, < gives NO

These solved cases illustrate the format of a correct answer.
I'd appreciate it if you could say whether COc1nnc2ccc(N3CCC(c4ccc(OCCN5CCN(C)C(=O)[C@H]5C)cc4)CC3)nn12 [AZD5153] + CC1(C)CCC(CN2CCN(c3ccc(C(=O)NS(=O)(=O)c4ccc(NCC5CCOCC5)c([N+](=O)[O-])c4)c(Oc4cnc5[nH]ccc5c4)c3)CC2)=C(c2ccc(Cl)cc2)C1 [Venetoclax] (first compound max 1 µM, 7x7, partner max 1 µM) has combination Emax at least equal to 0.4. YES

I'd appreciate it if you could say whether O=C(c1cc(Cc2n[nH]c(=O)c3ccccc23)ccc1F)N1CCN(C(=O)C2CC2)CC1 [Olaparib] + Cc1c2c(nn1C)CSCc1cc(n(C)n1)CSc1cc(c3ccccc3c1)OCCCc1c(C(=O)O)n(C)c3c-2c(Cl)ccc13 [AZD5991] (first compound max 10 µM, 7x7, partner max 1 µM) has combination Emax at least equal to 0.4. NO

I'd appreciate it if you could say whether CS(=O)(=O)CCNCc1ccc(-c2ccc3ncnc(Nc4ccc(OCc5cccc(F)c5)c(Cl)c4)c3c2)o1 [Lapatinib] + C[C@@H](Oc1cc(-c2cnn(C3CCNCC3)c2)cnc1N)c1c(Cl)ccc(F)c1Cl [Crizotinib] (first compound max 10 µM, 7x7, partner max 10 µM) has combination Emax at least equal to 0.4. YES

I'd appreciate it if you could say whether CN(CCO)CC[C@H](CSc1ccccc1)Nc1ccc(S(=O)(=O)NC(=O)c2ccc(N3CCC([C@@H](O)c4ccccc4-c4ccc(Cl)cc4)CC3)cc2)cc1S(=O)(=O)C(F)(F)F [AZD4320] + CCN(CCO)CCCOc1ccc2c(Nc3cc(CC(=O)Nc4cccc(F)c4)[nH]n3)ncnc2c1 [AZD2811] (first compound max 1 µM, 7x7, partner max 1 µM) has combination Emax at least equal to 0.4. NO

For the next question, use this compound.
I'd appreciate it if you could say whether COc1cccc2c1C(=O)c1c(O)c3c(c(O)c1C2=O)C[C@@](O)(C(=O)CO)C[C@@H]3O[C@H]1C[C@H](N)[C@H](O)[C@H](C)O1 [Doxorubicin] + Cc1cc2ncnn2cc1Nc1ncc2c(n1)n(C1CCOCC1)c(=O)n2C [AZD7648] (first compound max 1 µM, 7x7, partner max 10 µM) has combination Emax at least equal to 0.4. NO
